- ASSAY_NAME: Viability qHTS for spleen associated tyrosine kinase inhibitor (SYKi) naive MV4-11 cells (AID 1963823); further: nearly all actives have a fitted effect of over 40% in size
- REPORTED_CONDITIONS: MV4-11 AML viability, CellTiter-Glo luminescence, 72 h; series mostly up to 45 µM
Records with an inconclusive call do not appear. Active and inactive are the calls of the source. The call rests on the fitted dose curve; in most records, active means well fitted cell-killing curve with a large enough effect; inconclusive means small, poorly fitted or top-dose-only effect, or effect the other way; inactive means no such curve, though single readings can be large or run the other way.
Hi! Could you answer with just one of these? t = active, f = inactive

O=C(O)c1cc(O)c(O)c(O)c1 ... f

(Q) Recorded test outcome, item C=C1CC[C@@H]2[C@](C)(CO)[C@H](O)CC[C@@]2(C)[C@@H]1C/C=C1/C(=O)OC[C@@H]1O
(A) t

(Q) What did this assay record as the result for C=CC(C)(C)c1[nH]c2ccccc2c1C1=C(O)C(=O)C(c2c[nH]c3c(CC=C(C)C)cccc23)=C(O)C1=O ?
(A) t

(Q) Outcome? CC1CCC2(C(=O)OC3OC(CO)C(O)C(O)C3O)CCC3(C(=O)O)C(=CCC4C5(C)CCC(OC6OC(C)C(O)C(O)C6O)C(C)(C)C5CCC43C)C2C1C (centres undefined)
(A) f

(Q) So what was the verdict on NC(=O)Nc1cc(-c2cccc(F)c2)sc1C(=O)NC1CCCNC1 (centres undefined) in this test?
(A) f

(Q) Just curious, what result did COc1ccccc1O get here?
(A) f

(Q) So what was the verdict on CC(C)C[C@H](NC(=O)[C@H](Cc1ccccc1)NC(=O)OCc1ccccc1)C(=O)C=O in this test?
(A) t

(Q) Which result was noted for this compound in the test: CC(O)C(=O)O (centres undefined)
(A) f

(Q) Which result was noted for this compound in the test: O=C(c1ccc2nccnc2c1)N1CCCCC1
(A) f

(Q) Any idea what this test logged for N#C/C(=C1\Nc2ccccc2S1)c1ccnc(NCCc2cccnc2)n1 ?
(A) t

(Q) Hi, do you know how COC(=O)C1C2CC3c4[nH]c5cc(OC)ccc5c4CCN3CC2CC(OC(=O)c2cc(OC)c(OC)c(OC)c2)C1OC (centres undefined) came out in this test?
(A) t

(Q) Record request — test call for Cc1ccc(Cl)cc1N(CC(=O)Nc1c(F)cccc1F)S(C)(=O)=O
(A) t

(Q) Just curious, what result did O=C(O)CN1C(=O)c2cccc3cccc(c23)C1=O get here?
(A) f

(Q) Tell me the assay call for C[C@]12C=CC(=O)C=C1CC[C@@H]1[C@@H]2[C@@H](O)C[C@@]2(C)[C@H]1CC[C@]2(O)C(=O)CO please.
(A) f
